Target: acid sphingomyelinase (Homo sapiens)
Sequence (P17405 47-631): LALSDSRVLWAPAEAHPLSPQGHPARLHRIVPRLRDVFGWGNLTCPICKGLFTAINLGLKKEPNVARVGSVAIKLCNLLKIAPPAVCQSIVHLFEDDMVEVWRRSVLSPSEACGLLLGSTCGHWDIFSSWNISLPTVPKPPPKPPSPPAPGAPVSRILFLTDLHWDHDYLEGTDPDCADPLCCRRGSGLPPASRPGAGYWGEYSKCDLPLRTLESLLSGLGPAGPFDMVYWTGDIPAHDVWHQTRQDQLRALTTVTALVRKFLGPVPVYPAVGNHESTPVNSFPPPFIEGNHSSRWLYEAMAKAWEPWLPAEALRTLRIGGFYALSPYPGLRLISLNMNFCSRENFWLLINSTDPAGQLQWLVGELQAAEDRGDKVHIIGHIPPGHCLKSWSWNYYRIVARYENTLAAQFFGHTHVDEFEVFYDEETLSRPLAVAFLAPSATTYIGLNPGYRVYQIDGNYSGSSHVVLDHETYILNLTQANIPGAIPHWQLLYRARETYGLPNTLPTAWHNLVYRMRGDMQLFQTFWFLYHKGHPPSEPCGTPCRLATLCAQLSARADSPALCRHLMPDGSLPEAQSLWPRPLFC
Test: Acid sphingomyelinase selectivity study, standard protocol
Format: biochemical
Settings: results not shown
measured-endpoint: IC50

Measured IC50, COc1cc(-c2nc(-c3cccs3)c(-c3ccccc3)[nH]2)cc(OC)c1O : > 100 µM
